# assay-explanation: Cytotoxicity against human T98G cells assessed as cell viability at 250 uM after 24 hrs by MTT assay
# Assay type: cell-based
# measurement-context: read-out: Activity
Residues, ends and D or L forms follow the SMILES beside them.
property-measured: viability at 24 h, 250 µM (%)
Respond numerically; units are % and should not be typed.

Return viability at 24 h, 250 µM for the following compound: COC(=O)[C@H](CC(C)C)NC(=O)[C@H](CC(C)C)NC(=O)[C@H](C)NC(=O)[C@H](CC(C)C)NC(=O)[C@H](C)NC(=O)[C@H](CC(C)C)NC(=O)CN1CCCNCCCNCCC1 (HELM PEPTIDE1{[O=C(CN1CCCNCCCNCCC1)[*:2]].L.A.L.A.L.L.[CO[*:1]]}$$$$V2.0) 96

Return viability at 24 h, 250 µM for the following compound: COC(=O)[C@H](Cc1ccccc1)NC(=O)[C@H](CC(C)C)NC(=O)[C@H](C)NC(=O)[C@H](CC(C)C)NC(=O)[C@H](C)NC(=O)[C@H](CC(C)C)NC(=O)CN1CCCNCCCNCCC1 (HELM PEPTIDE1{[O=C(CN1CCCNCCCNCCC1)[*:2]].L.A.L.A.L.F.[CO[*:1]]}$$$$V2.0) 78

Return viability at 24 h, 250 µM for the following compound: COC(=O)[C@H](Cc1c[nH]c2ccccc12)NC(=O)[C@H](CC(C)C)NC(=O)[C@H](C)NC(=O)[C@H](CC(C)C)NC(=O)[C@H](C)NC(=O)[C@H](CC(C)C)NC(=O)CN1CCCNCCCNCCC1 (HELM PEPTIDE1{[O=C(CN1CCCNCCCNCCC1)[*:2]].L.A.L.A.L.W.[CO[*:1]]}$$$$V2.0) 80

====

# System: Nucleic Acid
# assay-explanation: Induction of Escherichia coli pUC18 DNA condensation assessed as retardation of DNA migration at 500 uM after 1 hr by agarose gel electrophoresis
# Assay type: nucleic-acid assay
Activity calls are given as the source filed them. The rule behind the calls is not given here. Residues, ends and D or L forms follow the SMILES beside them.
property-measured: Activity

1) COC(=O)[C@H](Cc1ccc(O)cc1)NC(=O)[C@H](CC(C)C)NC(=O)[C@H](C)NC(=O)[C@H](CC(C)C)NC(=O)[C@H](C)NC(=O)[C@H](CC(C)C)NC(=O)CN1CCCNCCCNCCC1 (HELM PEPTIDE1{[O=C(CN1CCCNCCCNCCC1)[*:2]].L.A.L.A.L.Y.[CO[*:1]]}$$$$V2.0): inactive
2) COC(=O)[C@H](C)NC(=O)[C@H](CC(C)C)NC(=O)[C@H](C)NC(=O)[C@H](CC(C)C)NC(=O)[C@H](C)NC(=O)[C@H](CC(C)C)NC(=O)CN1CCCNCCCNCCC1 (HELM PEPTIDE1{[O=C(CN1CCCNCCCNCCC1)[*:2]].L.A.L.A.L.A.[CO[*:1]]}$$$$V2.0): inactive
3) COC(=O)[C@@H](NC(=O)[C@H](CC(C)C)NC(=O)[C@H](C)NC(=O)[C@H](CC(C)C)NC(=O)[C@H](C)NC(=O)[C@H](CC(C)C)NC(=O)CN1CCCNCCCNCCC1)C(C)C (HELM PEPTIDE1{[O=C(CN1CCCNCCCNCCC1)[*:2]].L.A.L.A.L.V.[CO[*:1]]}$$$$V2.0): inactive

====

Kindly supply the reported viability at 24 h, 250 µM values for the records listed here.
# assay-explanation: Cytotoxicity against human HepG2 cells assessed as cell viability at 250 uM after 24 hrs by MTT assay
# Assay type: cell-based
# measurement-context: read-out: Activity
Residues, ends and D or L forms follow the SMILES beside them.
Respond numerically; units are % and should not be typed.

Return viability at 24 h, 250 µM for the following compound: COC(=O)[C@H](CC(C)C)NC(=O)[C@H](CC(C)C)NC(=O)[C@H](C)NC(=O)[C@H](CC(C)C)NC(=O)[C@H](C)NC(=O)[C@H](CC(C)C)NC(=O)CN1CCCNCCCNCCC1 (HELM PEPTIDE1{[O=C(CN1CCCNCCCNCCC1)[*:2]].L.A.L.A.L.L.[CO[*:1]]}$$$$V2.0) 97

Return viability at 24 h, 250 µM for the following compound: COC(=O)[C@H](Cc1ccccc1)NC(=O)[C@H](CC(C)C)NC(=O)[C@H](C)NC(=O)[C@H](CC(C)C)NC(=O)[C@H](C)NC(=O)[C@H](CC(C)C)NC(=O)CN1CCCNCCCNCCC1 (HELM PEPTIDE1{[O=C(CN1CCCNCCCNCCC1)[*:2]].L.A.L.A.L.F.[CO[*:1]]}$$$$V2.0) 83

Return viability at 24 h, 250 µM for the following compound: COC(=O)[C@H](Cc1c[nH]c2ccccc12)NC(=O)[C@H](CC(C)C)NC(=O)[C@H](C)NC(=O)[C@H](CC(C)C)NC(=O)[C@H](C)NC(=O)[C@H](CC(C)C)NC(=O)CN1CCCNCCCNCCC1 (HELM PEPTIDE1{[O=C(CN1CCCNCCCNCCC1)[*:2]].L.A.L.A.L.W.[CO[*:1]]}$$$$V2.0) 85

====

# System: Nucleic Acid
# assay-explanation: Induction of Escherichia coli pUC18 DNA condensation assessed as retardation of DNA migration at 500 uM after 1 hr by agarose gel electrophoresis
# Assay type: nucleic-acid assay
Activity calls are given as the source filed them. The rule behind the calls is not given here. Residues, ends and D or L forms follow the SMILES beside them.
property-measured: Activity

1. COC(=O)[C@H](CO)NC(=O)[C@H](CC(C)C)NC(=O)[C@H](C)NC(=O)[C@H](CC(C)C)NC(=O)[C@H](C)NC(=O)[C@H](CC(C)C)NC(=O)CN1CCCNCCCNCCC1 (HELM PEPTIDE1{[O=C(CN1CCCNCCCNCCC1)[*:2]].L.A.L.A.L.S.[CO[*:1]]}$$$$V2.0): inactive
2. COC(=O)CNC(=O)[C@H](CC(C)C)NC(=O)[C@H](C)NC(=O)[C@H](CC(C)C)NC(=O)[C@H](C)NC(=O)[C@H](CC(C)C)NC(=O)CN1CCCNCCCNCCC1 (HELM PEPTIDE1{[O=C(CN1CCCNCCCNCCC1)[*:2]].L.A.L.A.L.G.[CO[*:1]]}$$$$V2.0): inactive
